System: 935938-334-R-J1-PDC spheroids with HUVEC/MSC, viability
method.description: Anticancer human tumor 935938-334-R-J1-PDC patient-derived small intestine adenocarcinoma cell line growth inhibition [PI3K]
protocol.conditions: curve of first compound; second compound 0.1 µM
readout.label: pIC50
Notebook: values listed as pIC50 are -log10 of the concentration (mol/L).

Here are 2 compounds together with their reported answers.
# compound, pIC50
measured = [
    ("CCN1CCN(Cc2ccc(Nc3ncc(F)c(-c4cc(F)c5nc(C)n(C(C)C)c5c4)n3)nc2)CC1 + Cc1nc(NC(=O)N2CCCC2C(N)=O)sc1-c1ccnc(C(C)(C)C(F)(F)F)c1", 7.36),
    ("CNC(=O)c1ccc(N2C(=S)N(c3ccc(C#N)c(C(F)(F)F)c3)C(=O)C2(C)C)cc1F + COc1c(OCCCN2CCOCC2)ccc2c3n(c(=NC(=O)c4cnc(N)nc4)nc12)CCN3", 7.16),
]

Next compound, please.
935938-334-R-J1-PDC spheroids with HUVEC/MSC, viability / pIC50 / CCCS(=O)(=O)Nc1ccc(F)c(C(=O)c2c[nH]c3ncc(-c4ccc(Cl)cc4)cc23)c1F + CC(Nc1ncnc2nc[nH]c12)c1cc2cccc(Cl)c2c(=O)n1-c1ccccc1 : value?
5.17

* * *

System: 935938-334-R-J1-PDC spheroids with HUVEC/MSC, viability
method.description: Anticancer human tumor 935938-334-R-J1-PDC cell line growth inhibition [PI3K];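 also: compound exposure lasted seven days before viability was read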;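 as to viability, T/C: percent of vehicle DMSO treated spheroid viability so 100% = untreated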
protocol.conditions: second compound 0.01 µM; first compound 0.1 µM; stronger effect = lower value
viability, T/C listing for selected compounds.
Please respond with the number in % and leave the unit unwritten.

Here are 4 compounds together with their reported answers.
# compound, reading.unit, viability, T/C
rows = [
    ("CC(C)n1nc(-c2ccc3oc(N)nc3c2)c2c(N)ncnc21 + COc1c(OCCCN2CCOCC2)ccc2c3n(c(=NC(=O)c4cnc(N)nc4)nc12)CCN3", "%", 43.4),
    ("CC(C)NCC(C(=O)N1CCN(c2ncnc3c2C(C)CC3O)CC1)c1ccc(Cl)cc1 (stereo not given) + COc1c(OCCCN2CCOCC2)ccc2c3n(c(=NC(=O)c4cnc(N)nc4)nc12)CCN3", "%", 106),
    ("CC(=O)c1c(C)c2cnc(Nc3ccc(N4CCNCC4)cn3)nc2n(C2CCCC2)c1=O + COc1c(OCCCN2CCOCC2)ccc2c3n(c(=NC(=O)c4cnc(N)nc4)nc12)CCN3", "%", 56.3),
    ("CC1(C)CCC(CN2CCN(c3ccc(C(=O)NS(=O)(=O)c4ccc(NCC5CCOCC5)c([N+](=O)[O-])c4)c(Oc4cnc5[nH]ccc5c4)c3)CC2)=C(c2ccc(Cl)cc2)C1 + COc1c(OCCCN2CCOCC2)ccc2c3n(c(=NC(=O)c4cnc(N)nc4)nc12)CCN3", "%", 85.6),
]

Name the reported viability, T/C value associated with the compound C=CC(=O)N1CCN(c2nc(=O)n(-c3c(C)ccnc3C(C)C)c3nc(-c4c(O)cccc4F)c(F)cc23)C(C)C1 (stereo not given) + CC(Nc1ccc2c(c1)OCCn1cc(N3C(=O)OCC3C(F)F)nc1-2)C(N)=O
85

* * *

System: 935938-334-R-J1-PDC spheroids with HUVEC/MSC, viability
method.description: Anticancer human tumor 935938-334-R-J1-PDC cell line growth inhibition [PI3K];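 also: compound exposure lasted seven days before viability was read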
protocol.conditions: curve of first compound; second compound 1 µM
pIC50: −log10 of the molar value.
readout.label: pIC50

Here are 4 compounds together with their reported answers.
# compound, readout.label, endpoint.value
rows = [
    ("CC(C)n1nc(-c2ccc3oc(N)nc3c2)c2c(N)ncnc21 + COc1c(OCCCN2CCOCC2)ccc2c3n(c(=NC(=O)c4cnc(N)nc4)nc12)CCN3", "pIC50", "> 9.50"),
    ("Cn1ncnc1[C@H]1c2n[nH]c(=O)c3cc(F)cc(c23)N[C@@H]1c1ccc(F)cc1 + COc1c(OCCCN2CCOCC2)ccc2c3n(c(=NC(=O)c4cnc(N)nc4)nc12)CCN3", "pIC50", "> 9.50"),
    ("CC1(C)CCC(CN2CCN(c3ccc(C(=O)NS(=O)(=O)c4ccc(NCC5CCOCC5)c([N+](=O)[O-])c4)c(Oc4cnc5[nH]ccc5c4)c3)CC2)=C(c2ccc(Cl)cc2)C1 + CC(Nc1ncnc2nc[nH]c12)c1cc2cccc(Cl)c2c(=O)n1-c1ccccc1", "pIC50", 5.17),
    ("Cn1ncnc1[C@H]1c2n[nH]c(=O)c3cc(F)cc(c23)N[C@@H]1c1ccc(F)cc1 + Cc1nc(NC(=O)N2CCCC2C(N)=O)sc1-c1ccnc(C(C)(C)C(F)(F)F)c1", "pIC50", "< 7.00"),
]

Name the reported pIC50 value associated with the compound Cn1nccc1Nc1nccc(-c2ccn(C(CO)c3ccc(Cl)c(F)c3)c(=O)c2)n1 (stereo not given) + COc1c(OCCCN2CCOCC2)ccc2c3n(c(=NC(=O)c4cnc(N)nc4)nc12)CCN3
> 7.50
